Tested on: KYSE-70 (Esophageal Squamous Cell Carcinoma)
Experiment: combination Emax (second highest fraction inhibited in the dose matrix, 72 h); higher = more inhibition; extreme values may be limits of the assay
Here, each record is paired with measured combination Emax data.
outcomeMeasure: combination Emax

compound="C[C@@H]1COCCN1c1cc(C2([S@](C)(=N)=O)CC2)nc(-c2ccnc3[nH]ccc23)n1 [AZD6738] + Nc1ccn([C@@H]2O[C@H](CO)[C@@H](O)C2(F)F)c(=O)n1 [Gemcitabine] (first compound max 10 µM, 7x7, partner max 0.3 µM)" systemtested="KYSE-70 (Esophageal Squamous Cell Carcinoma)" datavalue=0.504
compound="CC1(C)CCC(CN2CCN(c3ccc(C(=O)NS(=O)(=O)c4ccc(NCC5CCOCC5)c([N+](=O)[O-])c4)c(Oc4cnc5[nH]ccc5c4)c3)CC2)=C(c2ccc(Cl)cc2)C1 [Venetoclax] + C1CN(CCC1(C(=O)N[C@@H](CCO)C2=CC=C(C=C2)Cl)N)C3=NC=NC4=C3C=CN4 [Capivasertib] (first compound max 1 µM, 7x7, partner max 3 µM)" systemtested="KYSE-70 (Esophageal Squamous Cell Carcinoma)" datavalue=0.234
compound="COc1nnc2ccc(N3CCC(c4ccc(OCCN5CCN(C)C(=O)[C@H]5C)cc4)CC3)nn12 [AZD5153] + Cc1c2c(nn1C)CSCc1cc(n(C)n1)CSc1cc(c3ccccc3c1)OCCCc1c(C(=O)O)n(C)c3c-2c(Cl)ccc13 [AZD5991] (first compound max 1 µM, 7x7, partner max 1 µM)" systemtested="KYSE-70 (Esophageal Squamous Cell Carcinoma)" datavalue=0.355
